assay: Drug level in myocardium of beagle dog treated with [14C]casopitant mesylate at 40 mg/kg/day, po administered as repeat dose measured after 13 weeks by HPLC-MS/MS method; assay type: ADME, organism-based, Canis lupus familiaris; parameters: dosed compound name [14C]Casopitant, route oral; conditions: in vivo, 2184 h

{"Compound": "CC(=O)N1CCN([C@H]2CCN(C(=O)N(C)[C@H](C)c3cc(C(F)(F)F)cc(C(F)(F)F)c3)[C@@H](c3ccc(F)cc3C)C2)CC1.CS(=O)(=O)O [CASOPITANT MESYLATE]", "Compound recovery": "1991 ng/g"}
{"Compound": "CC(=O)N1CCN([C@H]2CCN(C(=O)N(C)[C@H](C)c3cc(C(F)(F)F)cc(C(F)(F)F)c3)[C@@H](c3ccc(F)cc3C)C2)CC1O (some centres not stated)", "Compound recovery": "4516 ng/g"}
{"Compound": "Cc1cc(F)ccc1[C@H]1C[C@@H](N2CCNCC2)CCN1C(=O)N(C)[C@H](C)c1cc(C(F)(F)F)cc(C(F)(F)F)c1", "Compound recovery": "7867 ng/g"}
{"Compound": "CC(=O)NCCN[C@H]1CCN(C(=O)N(C)[C@H](C)c2cc(C(F)(F)F)cc(C(F)(F)F)c2)[C@@H](c2ccc(F)cc2C)C1", "Compound recovery": "5386 ng/g"}
{"Compound": "Cc1cc(F)ccc1[C@H]1C[C@@H](NCCN)CCN1C(=O)N(C)[C@H](C)c1cc(C(F)(F)F)cc(C(F)(F)F)c1", "Compound recovery": "62780 ng/g"}
{"Compound": "Cc1cc(F)ccc1[C@H]1C[C@@H](N)CCN1C(=O)N(C)[C@H](C)c1cc(C(F)(F)F)cc(C(F)(F)F)c1", "Compound recovery": "39073 ng/g"}
{"Compound": "Cc1cc(F)ccc1[C@H]1C[C@@H](N2CCNC(=O)C2)CCN1C(=O)N(C)[C@H](C)c1cc(C(F)(F)F)cc(C(F)(F)F)c1", "Compound recovery": "2010 ng/g"}
